B1: glmS ribozyme (parent)
chain: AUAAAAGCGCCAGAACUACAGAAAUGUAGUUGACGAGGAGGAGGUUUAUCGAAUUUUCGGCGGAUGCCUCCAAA

variants of: B1; assay: kcat; higher = faster cleavage; RNA array; conditions: with glucosamine-6-phosphate
Variants at the floor of the assay were thinned out.
attributeMeasured: kcat

>>> print(df.to_string())
          mutantid  attributemeasured  measuredresult
 0       G38U C70U               kcat    1.27e-05 s⁻¹
 1       A12U C71G               kcat     0.00158 s⁻¹
 2       G38C G66U               kcat     < 1e-05 s⁻¹
 3       A15G U46A               kcat     0.00453 s⁻¹
 4       C11G A33U               kcat     < 1e-05 s⁻¹
 5        A6U C50U               kcat     < 1e-05 s⁻¹
 6       A48C A53U               kcat    0.000244 s⁻¹
 7       C16A C70G               kcat    4.18e-05 s⁻¹
 8       A12C G38U               kcat     < 1e-05 s⁻¹
 9  A14U G37U G63U               kcat     < 1e-05 s⁻¹
10       G13A U54G               kcat    0.000682 s⁻¹
